Test system: Corynebacterium ATCC 7715
Assay type: cell-based
Non-standard residues stand in square brackets, D forms with d. Residues, ends and D or L forms follow the SMILES beside them. dPhe(4-Br) = N[C@H](Cc1ccc(Br)cc1)C(=O)O; d2Nal = N[C@H](Cc1ccc2ccccc2c1)C(=O)O
Provide the recorded MIC Corynebacterium ATCC 7715 for the entries that follow.
One number for each entry, in µg/mL.

Some solved entries appear below for comparison.
Compound	Value kind	Recorded measurement
CC(=O)N[C@H](CCCNC(=N)N)C(=O)N[C@H](CCCNC(=N)N)C(=O)N[C@H](CC(C)C)C(=O)N[C@H](CC(C)C)C(=O)N[C@H](Cc1ccc2ccccc2c1)C(=O)N[C@H](CCCNC(=N)N)C(=O)N[C@H](CC(C)C)C(=O)N[C@H](CCCCN)C(=O)N[C@H](Cc1ccc2ccccc2c1)C(=O)N[C@H](CCCNC(=N)N)C(=O)N[C@H](CCCCN)C(N)=O [LV-21] (Ac-[dR][dR][dL][dL][d2Nal][dR][dL][dK][d2Nal][dR][dK]-NH2)	MIC Corynebacterium ATCC 7715	4
CC(=O)N[C@H](CCCNC(=N)N)C(=O)N[C@H](CCCCN)C(=O)N[C@H](CC(C)C)C(=O)N[C@H](CC(C)C)C(=O)N[C@H](Cc1ccc2ccccc2c1)C(=O)N[C@H](CCCNC(=N)N)C(=O)N[C@H](CC(C)C)C(=O)N[C@H](CCCCN)C(=O)N[C@H](Cc1ccc2ccccc2c1)C(=O)N[C@H](CCCNC(=N)N)C(=O)N[C@H](CCCNC(=N)N)C(N)=O [LV-22] (Ac-[dR][dK][dL][dL][d2Nal][dR][dL][dK][d2Nal][dR][dR]-NH2)	MIC Corynebacterium ATCC 7715	4

Continue with the next compound.
Lookup: I have this compound here, CC(=O)N[C@H](CCCCN)C(=O)N[C@H](CCCCN)C(=O)N[C@H](CC(C)C)C(=O)N[C@H](CC(C)C)C(=O)N[C@H](Cc1ccc(Br)cc1)C(=O)N[C@H](CCCNC(=N)N)C(=O)N[C@H](CC(C)C)C(=O)N[C@H](CCCCN)C(=O)N[C@H](Cc1ccc(Br)cc1)C(=O)N[C@H](CCCNC(=N)N)C(=O)N[C@H](CCCCN)C(N)=O [LV-10] (Ac-[dK][dK][dL][dL][dPhe(4-Br)][dR][dL][dK][dPhe(4-Br)][dR][dK]-NH2) , and I need its recorded MIC Corynebacterium ATCC 7715.
Found: 8

----------
Exercise: state measured MIC Bacillus subtilis ATCC 6633 for each of the molecules provided.
Test system: Bacillus subtilis ATCC 6633
Type: cell-based
Source text: According to the Standards of Clinical and Laboratory Standards Institute (CLSI) of the USA for antimicrobial drug susceptibility test operation standards, the micronutrient serial twofold dilution method was used further determine MICs of 30 AMPs (S/N: LV-1 to LV-30) 10 clinically common sensitive strains and 6 fungi in clinical practice. The experiment was repeated 5 times in parallel.
Non-standard residues stand in square brackets, D forms with d. Residues, ends and D or L forms follow the SMILES beside them. dPhe(4-Br) = N[C@H](Cc1ccc(Br)cc1)C(=O)O; d2Nal = N[C@H](Cc1ccc2ccccc2c1)C(=O)O; d(hLeu) = CC(C)CC[C@@H](N)C(=O)O
Give bare numbers, in µg/mL.

Would you please look over these solved cases?
Molecule	Tgt	Unit name	Recorded measurement
CC(=O)N[C@H](CCCNC(=N)N)C(=O)N[C@H](CCCCN)C(=O)N[C@H](CCC(C)C)C(=O)N[C@H](CCC(C)C)C(=O)N[C@H](Cc1ccc2ccccc2c1)C(=O)N[C@H](CCCNC(=N)N)C(=O)N[C@H](CCC(C)C)C(=O)N[C@H](CCCCN)C(=O)N[C@H](Cc1ccc2ccccc2c1)C(=O)N[C@H](CCCNC(=N)N)C(=O)N[C@H](CCCCN)C(N)=O [LV-14] (Ac-[dR][dK][d(hLeu)][d(hLeu)][d2Nal][dR][d(hLeu)][dK][d2Nal][dR][dK]-NH2)	Bacillus subtilis ATCC 6633	µg/mL	2
CC(=O)N[C@H](CCCNC(=N)N)C(=O)N[C@H](CCCCN)C(=O)N[C@H](CC(C)C)C(=O)N[C@H](CC(C)C)C(=O)N[C@H](Cc1ccc2ccccc2c1)C(=O)N[C@H](CCCNC(=N)N)C(=O)N[C@H](CC(C)C)C(=O)N[C@H](CCCCN)C(=O)N[C@H](Cc1ccc2ccccc2c1)C(=O)N[C@H](CCCNC(=N)N)C(=O)N[C@H](CCCNC(=N)N)C(N)=O [LV-22] (Ac-[dR][dK][dL][dL][d2Nal][dR][dL][dK][d2Nal][dR][dR]-NH2)	Bacillus subtilis ATCC 6633	µg/mL	4
CC(=O)N[C@H](CCCNC(=N)N)C(=O)N[C@H](CCCCN)C(=O)N[C@H](CC(C)C)C(=O)N[C@H](CC(C)C)C(=O)N[C@H](Cc1ccccc1)C(=O)N[C@H](CCCNC(=N)N)C(=O)N[C@H](CC(C)C)C(=O)N[C@H](CCCCN)C(=O)N[C@H](Cc1ccccc1)C(=O)N[C@H](CCCNC(=N)N)C(=O)N[C@H](CCCCN)C(N)=O [LV-2] (Ac-[dR][dK][dL][dL][dF][dR][dL][dK][dF][dR][dK]-NH2)	Bacillus subtilis ATCC 6633	µg/mL	2
CC(=O)N[C@H](CCCCN)C(=O)N[C@H](CCCCN)C(=O)N[C@H](CC(C)C)C(=O)N[C@H](CC(C)C)C(=O)N[C@H](Cc1ccc(Br)cc1)C(=O)N[C@H](CCCNC(=N)N)C(=O)N[C@H](CC(C)C)C(=O)N[C@H](CCCCN)C(=O)N[C@H](Cc1ccc(Br)cc1)C(=O)N[C@H](CCCNC(=N)N)C(=O)N[C@H](CCCCN)C(N)=O [LV-10] (Ac-[dK][dK][dL][dL][dPhe(4-Br)][dR][dL][dK][dPhe(4-Br)][dR][dK]-NH2)	Bacillus subtilis ATCC 6633	µg/mL	2

Lab note: next molecule to report on.
Lookup: Requested field: MIC Bacillus subtilis ATCC 6633. Item: CC(=O)N[C@H](CCCNC(=N)N)C(=O)N[C@H](CCCCN)C(=O)N[C@H](CC(C)C)C(=O)N[C@H](CC(C)C)C(=O)N[C@H](Cc1ccc2ccccc2c1)C(=O)N[C@H](CCCCN)C(=O)N[C@H](CC(C)C)C(=O)N[C@H](CCCCN)C(=O)N[C@H](Cc1ccc2ccccc2c1)C(=O)N[C@H](CCCCN)C(=O)N[C@H](CCCNC(=N)N)C(N)=O [LV-18] (Ac-[dR][dK][dL][dL][d2Nal][dK][dL][dK][d2Nal][dK][dR]-NH2)
Found: 4

----------
System: Candida glabrata ATCC 15126
Assay type: cell-based
Non-standard residues stand in square brackets, D forms with d. Residues, ends and D or L forms follow the SMILES beside them. d2Nal = N[C@H](Cc1ccc2ccccc2c1)C(=O)O; d(hLeu) = CC(C)CC[C@@H](N)C(=O)O; dNva = CCC[C@@H](N)C(=O)O
Value kind: MIC Candida glabrata ATCC 15126 (µg/mL)
Numbers only, in µg/mL.

Worked cases, MIC Candida glabrata ATCC 15126 given:
Compound	Tgt	Value kind	Recorded measurement
CCC[C@@H](NC(=O)[C@@H](CCCCN)NC(=O)[C@@H](CCCNC(=N)N)NC(C)=O)C(=O)N[C@H](CCC)C(=O)N[C@H](Cc1ccc2ccccc2c1)C(=O)N[C@H](CCCNC(=N)N)C(=O)N[C@H](CCC)C(=O)N[C@H](CCCCN)C(=O)N[C@H](Cc1ccc2ccccc2c1)C(=O)N[C@H](CCCNC(=N)N)C(=O)N[C@H](CCCCN)C(N)=O [LV-13] (Ac-[dR][dK][dNva][dNva][d2Nal][dR][dNva][dK][d2Nal][dR][dK]-NH2)	Candida glabrata ATCC 15126	MIC Candida glabrata ATCC 15126	8
CC(=O)N[C@H](CCCNC(=N)N)C(=O)N[C@H](CCCCN)C(=O)N[C@H](CCC(C)C)C(=O)N[C@H](CCC(C)C)C(=O)N[C@H](Cc1ccc2ccccc2c1)C(=O)N[C@H](CCCNC(=N)N)C(=O)N[C@H](CCC(C)C)C(=O)N[C@H](CCCCN)C(=O)N[C@H](Cc1ccc2ccccc2c1)C(=O)N[C@H](CCCNC(=N)N)C(=O)N[C@H](CCCCN)C(N)=O [LV-14] (Ac-[dR][dK][d(hLeu)][d(hLeu)][d2Nal][dR][d(hLeu)][dK][d2Nal][dR][dK]-NH2)	Candida glabrata ATCC 15126	MIC Candida glabrata ATCC 15126	4

Lookup: Provide value of MIC Candida glabrata ATCC 15126 for this record tested with Candida glabrata ATCC 15126: CC(=O)N[C@H](CCCNC(=N)N)C(=O)N[C@H](CCCNC(=N)N)C(=O)N[C@H](CC(C)C)C(=O)N[C@H](CC(C)C)C(=O)N[C@H](Cc1ccc2ccccc2c1)C(=O)N[C@H](CCCNC(=N)N)C(=O)N[C@H](CC(C)C)C(=O)N[C@H](CCCCN)C(=O)N[C@H](Cc1ccc2ccccc2c1)C(=O)N[C@H](CCCNC(=N)N)C(=O)N[C@H](CCCCN)C(N)=O [LV-21] (Ac-[dR][dR][dL][dL][d2Nal][dR][dL][dK][d2Nal][dR][dK]-NH2)
Found: 16
